What Solubility in 9:1 Water:Ethanol was measured for each of the following?
PROTOCOL_DESCRIPTION: solubility in 9:1 water:ethanol (HPLC of filtrate)
CONDITION_SET: stirred 15 hours, 0.45 μm PTFE filter, HPLC
Give your result in µg/mL as a bare value.

Fill in Solubility in 9:1 Water:Ethanol for record `CC(=O)C(=O)[O-].[Au+].c1ccc(P(CCP(c2ccccc2)c2ccccc2)c2ccccc2)cc1.c1ccc(P(CCP(c2ccccc2)c2ccccc2)c2ccccc2)cc1`
200

Dear colleague, please send me the reported Solubility in 9:1 Water:Ethanol for `CC(O)C(=O)[O-].[Au+].c1ccc(P(CCP(c2ccccc2)c2ccccc2)c2ccccc2)cc1.c1ccc(P(CCP(c2ccccc2)c2ccccc2)c2ccccc2)cc1` when you can.
5200

Give Solubility in 9:1 Water:Ethanol for the following molecule: `[Au+].[Cl-].c1ccc(P(CCP(c2ccccc2)c2ccccc2)c2ccccc2)cc1.c1ccc(P(CCP(c2ccccc2)c2ccccc2)c2ccccc2)cc1`
170

Input `N#C[O-].[Au+].c1ccc(P(CCP(c2ccccc2)c2ccccc2)c2ccccc2)cc1.c1ccc(P(CCP(c2ccccc2)c2ccccc2)c2ccccc2)cc1` , output reported Solubility in 9:1 Water:Ethanol.
60

----------
So I've got a bunch of molecules here, and I need their MTD (maximally tolerated dose) values.
System: P388 leukemia
PROTOCOL_DESCRIPTION: ip P388 leukemia mouse model
Assay type: in vivo, mice (B6D2F1)
CONDITION_SET: B6D2F female mice, ip qDX5
Note: unit mg/kg is implicit; provide only the numeric part.

Report MTD (maximally tolerated dose) from P388 leukemia testing of CC(O)C(=O)[O-].[Au+].c1ccc(P(CCP(c2ccccc2)c2ccccc2)c2ccccc2)cc1.c1ccc(P(CCP(c2ccccc2)c2ccccc2)c2ccccc2)cc1 [compound 15]
2

# lookup: P388 leukemia MTD (maximally tolerated dose), key = CS(=O)(=O)[O-].[Au+].c1ccc(P(CCP(c2ccccc2)c2ccccc2)c2ccccc2)cc1.c1ccc(P(CCP(c2ccccc2)c2ccccc2)c2ccccc2)cc1 [compound 14]
2

# lookup: P388 leukemia MTD (maximally tolerated dose), key = [Au+].[Cl-].c1ccc(P(CCCP(c2ccccc2)c2ccccc2)c2ccccc2)cc1.c1ccc(P(CCCP(c2ccccc2)c2ccccc2)c2ccccc2)cc1 [compound 4]
3
